The binders listed here are annotated with their pKd.
- assay_target: T1, Dimeric human CD48-mFc (human)
- T1 construct: the whole entry is the construct; also called hCD48-mFc
- T1 chain: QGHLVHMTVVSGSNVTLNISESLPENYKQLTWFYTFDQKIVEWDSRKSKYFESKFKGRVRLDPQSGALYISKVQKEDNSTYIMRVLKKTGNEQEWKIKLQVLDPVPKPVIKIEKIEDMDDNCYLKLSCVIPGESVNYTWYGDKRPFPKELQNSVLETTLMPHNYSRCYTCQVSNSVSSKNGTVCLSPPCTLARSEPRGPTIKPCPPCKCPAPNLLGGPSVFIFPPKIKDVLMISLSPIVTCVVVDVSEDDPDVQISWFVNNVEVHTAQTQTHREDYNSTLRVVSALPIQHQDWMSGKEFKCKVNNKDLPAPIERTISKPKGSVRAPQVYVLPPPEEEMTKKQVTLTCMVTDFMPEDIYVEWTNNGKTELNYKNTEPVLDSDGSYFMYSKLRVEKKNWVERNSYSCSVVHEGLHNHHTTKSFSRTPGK
- assay_procedure: SPR (Biacore), antibody captured by anti-Fc, CD48 in solution, 37 C
The scale used: pKd is minus the common logarithm of the concentration in molar units.

>  <binder>
H2M1707N (antibody, V domains shown, Human variable domains, mouse IgG2 Fc (H2M)) VH: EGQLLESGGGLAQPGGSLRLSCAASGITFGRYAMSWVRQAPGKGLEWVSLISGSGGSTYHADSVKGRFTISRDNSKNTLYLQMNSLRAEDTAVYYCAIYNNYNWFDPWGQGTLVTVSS VL: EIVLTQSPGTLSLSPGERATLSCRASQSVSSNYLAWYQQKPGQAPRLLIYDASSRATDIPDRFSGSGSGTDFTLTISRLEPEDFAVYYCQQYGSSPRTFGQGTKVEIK

>  <pKd>
9.61

$$$$
>  <binder>
H2M1709N (antibody, mouse IgG2, V domains shown, Human variable domains, mouse IgG2 Fc (H2M)) VH: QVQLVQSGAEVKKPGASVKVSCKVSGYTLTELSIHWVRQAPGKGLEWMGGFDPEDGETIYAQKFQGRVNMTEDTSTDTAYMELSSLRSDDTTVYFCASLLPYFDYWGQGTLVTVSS VL: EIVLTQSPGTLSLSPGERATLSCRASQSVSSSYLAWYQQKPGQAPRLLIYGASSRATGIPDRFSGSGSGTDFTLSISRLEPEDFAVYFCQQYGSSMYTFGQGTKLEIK

>  <pKd>
9.61

$$$$
>  <binder>
H2M1712N (antibody, mouse IgG2, V domains shown, Human variable domains, mouse IgG2 Fc (H2M)) VH: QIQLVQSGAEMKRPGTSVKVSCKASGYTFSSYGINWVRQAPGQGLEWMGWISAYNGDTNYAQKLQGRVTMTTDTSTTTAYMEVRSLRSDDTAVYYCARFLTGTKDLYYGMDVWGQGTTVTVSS VL: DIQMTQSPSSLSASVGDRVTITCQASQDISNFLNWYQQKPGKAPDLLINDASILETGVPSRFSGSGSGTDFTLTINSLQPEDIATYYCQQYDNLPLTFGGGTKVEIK

>  <pKd>
9.60

$$$$

Enquiry: Sample H2M1713N (antibody, mouse IgG2, V domains shown, Human variable domains, mouse IgG2 Fc (H2M)) VH: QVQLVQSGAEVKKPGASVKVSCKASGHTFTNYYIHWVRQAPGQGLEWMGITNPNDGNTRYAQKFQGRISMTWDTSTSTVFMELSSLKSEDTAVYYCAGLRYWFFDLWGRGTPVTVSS VL: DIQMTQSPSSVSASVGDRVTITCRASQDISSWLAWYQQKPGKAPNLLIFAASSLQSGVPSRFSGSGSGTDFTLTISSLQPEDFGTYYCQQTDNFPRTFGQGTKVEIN — what was its pKd?
Return: 10.18

Enquiry: Sample H4H1779P (antibody, human IgG4, V domains shown, Human IgG4 Fc (H4H)) VH: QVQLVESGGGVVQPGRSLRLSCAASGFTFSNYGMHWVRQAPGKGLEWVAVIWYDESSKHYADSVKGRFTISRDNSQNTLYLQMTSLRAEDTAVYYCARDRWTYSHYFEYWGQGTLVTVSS VL: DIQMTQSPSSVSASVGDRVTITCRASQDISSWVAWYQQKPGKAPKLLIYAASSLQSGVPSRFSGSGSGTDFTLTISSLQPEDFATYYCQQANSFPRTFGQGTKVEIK — what was its pKd?
Return: 10.23

Enquiry: Sample H2M1763N (antibody, mouse IgG2, V domains shown, Human variable domains, mouse IgG2 Fc (H2M)) VH: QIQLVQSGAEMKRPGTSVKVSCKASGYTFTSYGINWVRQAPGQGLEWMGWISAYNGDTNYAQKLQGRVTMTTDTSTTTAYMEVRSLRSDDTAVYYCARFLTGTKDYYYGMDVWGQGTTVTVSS VL: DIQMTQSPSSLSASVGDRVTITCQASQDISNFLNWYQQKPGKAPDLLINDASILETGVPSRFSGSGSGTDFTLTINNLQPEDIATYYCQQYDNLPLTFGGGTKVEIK — what was its pKd?
Return: 9.53

Enquiry: Sample H2M1710N (antibody, mouse IgG2, V domains shown, Human variable domains, mouse IgG2 Fc (H2M)) VH: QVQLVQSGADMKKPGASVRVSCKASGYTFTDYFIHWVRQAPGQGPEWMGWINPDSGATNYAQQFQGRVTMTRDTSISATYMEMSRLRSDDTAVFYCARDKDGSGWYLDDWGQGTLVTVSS VL: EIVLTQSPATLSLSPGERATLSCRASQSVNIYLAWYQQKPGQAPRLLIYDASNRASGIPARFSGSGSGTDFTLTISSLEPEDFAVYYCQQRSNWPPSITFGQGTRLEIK — what was its pKd?
Return: 9.05

Enquiry: Sample H2M1811N (antibody, mouse IgG2, V domains shown, Human variable domains, mouse IgG2 Fc (H2M)) VH: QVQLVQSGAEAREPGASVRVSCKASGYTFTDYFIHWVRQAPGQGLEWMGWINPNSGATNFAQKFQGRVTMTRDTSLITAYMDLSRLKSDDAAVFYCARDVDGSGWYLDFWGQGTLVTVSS VL: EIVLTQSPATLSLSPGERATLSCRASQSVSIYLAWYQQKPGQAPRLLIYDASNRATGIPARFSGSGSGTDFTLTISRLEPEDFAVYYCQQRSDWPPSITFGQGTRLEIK — what was its pKd?
Return: 9.02

Enquiry: Sample H4H1775P (antibody, human IgG4, V domains shown, Human IgG4 Fc (H4H)) VH: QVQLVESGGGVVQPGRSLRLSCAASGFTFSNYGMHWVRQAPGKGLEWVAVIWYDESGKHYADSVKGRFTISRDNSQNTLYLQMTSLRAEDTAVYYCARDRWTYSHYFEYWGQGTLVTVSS VL: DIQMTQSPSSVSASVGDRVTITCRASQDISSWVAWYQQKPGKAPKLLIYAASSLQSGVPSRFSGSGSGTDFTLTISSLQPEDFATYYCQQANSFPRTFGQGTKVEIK — what was its pKd?
Return: 10.36

Enquiry: Sample H4H1763N (antibody, V domains shown, Human IgG4 Fc (H4H)) VH: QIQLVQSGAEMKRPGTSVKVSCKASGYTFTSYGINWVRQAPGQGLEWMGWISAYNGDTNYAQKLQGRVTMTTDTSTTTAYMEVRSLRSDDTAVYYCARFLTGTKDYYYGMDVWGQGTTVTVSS VL: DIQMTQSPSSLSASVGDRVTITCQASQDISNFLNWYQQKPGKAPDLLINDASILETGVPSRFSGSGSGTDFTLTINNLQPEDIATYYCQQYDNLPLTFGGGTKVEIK — what was its pKd?
Return: 10.57

Provenance of the data: patent US20130230533A1
